- Test system: Histoplasma capsulatum
- Format: cell-based
- assay conditions: RPMI 1640, MOPS pH 7
Overview of reported MIC across a group of compounds:

chem smiles	MIC [µg/mL]
O=c1n(-c2ccc(-n3cnnn3)cc2)cnn1C[C@@H]1CO[C@@](Cn2cncn2)(c2ccc(F)cc2F)C1	64
O=c1n(-c2ccc(Cn3cncn3)cc2)cnn1C[C@@H]1CO[C@@](Cn2cncn2)(c2ccc(F)cc2F)C1	16
O=c1n(-c2ccc(N3CCN(c4ccc(OCc5ccccc5)cc4)CC3)cc2)cnn1C[C@H]1CO[C@@](Cn2cncn2)(c2ccc(F)cc2F)C1	16
O=c1n(-c2ccc(O)cc2)cnn1C[C@H]1CO[C@@](Cn2cncn2)(c2ccc(F)cc2F)C1	16
O=c1n(-c2ccc(OCc3ccccc3)cc2)cnn1C[C@H]1CO[C@@](Cn2cncn2)(c2ccc(F)cc2F)C1	0.5
